# system-under-test: UniProtKB P04585
// IC50 lookup, one value per entry
recorded-endpoint: IC50 (nM)

- compound: "CC(C)CCC1(c2ccccc2)NC(=N)N(Cc2cccc(C(=O)N3CCN(c4ncccn4)CC3)c2)C1=O (stereo not shown)"
  unit: "nM"
  numeric-value: 16.8
- compound: "CC(C)CC1(c2ccccc2)NC(=N)N(Cc2cccc(C(=O)N3CCN(c4ncccn4)CC3)c2)C1=O (stereo not shown)"
  unit: "nM"
  numeric-value: 45.9
- compound: "COC(=O)Nc1ncc2c(n1)CN(C(=O)c1ccc3c(c1)[C@H](N1C(=N)N[C@](CCC(C)C)(c4ccccc4)C1=O)CCC3)C2"
  unit: "nM"
  numeric-value: 12
- compound: "CCCC1(c2ccccc2)NC(=N)N(Cc2cccc(C(=O)N3Cc4ccccc4C3)c2)C1=O (stereo not shown)"
  unit: "nM"
  numeric-value: 14.4

---

pIC50: −log10 of the molar value.
wild-type HIV-1 protease (Human immunodeficiency virus type 1 group M subtype B) data, read-out pIC50
recorded-endpoint: pIC50

- molecule: "N=C1NC(c2ccccc2)(c2ccccc2)C(=O)N1Cc1cccc(C(=O)N2CCn3c(nnc3C(F)(F)F)C2)c1 [Compound 291]"
  numeric-value: 7.42
- molecule: "COc1ccc(CN2C(=N)NC(c3ccccc3)(c3ccccc3)C2=O)cc1C(=O)N1Cc2cncnc2C1"
  numeric-value: 7.49
- molecule: "CC(C)CCC1(c2ccccc2)NC(=N)N(Cc2ccc(C(F)(F)F)c(C(=O)N3Cc4cncnc4C3)c2)C1=O (centres unmarked)"
  numeric-value: 8.11
- molecule: "N=C1N[C@](CCCC(F)(F)F)(c2ccc(F)cc2)C(=O)N1Cc1ccc(C(F)(F)F)c(C(=O)N2Cc3cnc(N[C@@H]4CCOC4)nc3C2)c1"
  numeric-value: 8.45
- molecule: "N=C1NC(c2ccc(F)cc2)(c2ccc(F)cc2)C(=O)N1Cc1cccc(C(=O)N2CCC(n3c(=O)oc4ccccc43)CC2)c1"
  numeric-value: 7.25
- molecule: "CC(C)CC1(c2ccccc2)NC(=N)N(Cc2ccc(Cl)c(C(=O)N3Cc4cncnc4C3)c2)C1=O (centres unmarked)"
  numeric-value: 8.16
- molecule: "N#Cc1ncc2c(n1)CN(C(=O)c1cccc(CN3C(=N)NC(c4ccc(F)cc4)(c4ccc(F)cc4)C3=O)c1)C2"
  numeric-value: 8.77
- molecule: "CN1CCN(C(=O)c2cc(CN3C(=N)NC(c4ccccc4)(c4ccccc4)C3=O)ccc2C(F)(F)F)CC1=O"
  numeric-value: 8.00
- molecule: "CC(C)CC[C@]1(c2ccccc2)NC(=N)N([C@H](C)c2cccc(C(=O)N3CCN(C)C(=O)C3)c2)C1=O"
  numeric-value: 7.55
- molecule: "N=C1NC(c2ccc(F)cc2)(c2ccc(F)cc2)C(=O)N1Cc1ccc(C(F)(F)F)c(C(=O)N2Cc3cncnc3C2)c1"
  numeric-value: 8.56
- molecule: "CC(C)Nc1ncc2c(n1)CN(C(=O)c1cc(CN3C(=N)N[C@](CCCC(F)(F)F)(c4ccc(F)cc4)C3=O)ccc1C(F)(F)F)C2"
  numeric-value: 8.26
- molecule: "N#Cc1ncc2c(n1)CN(C(=O)c1cc(CN3C(=N)NC(c4ccc(F)cc4)(c4ccc(F)cc4)C3=O)ccc1Cl)C2"
  numeric-value: 8.78
- molecule: "COC(=O)N1CCN(C(=O)c2cc(CN3C(=N)NC(c4ccccc4)(c4ccccc4)C3=O)ccc2C(F)(F)F)CC1"
  numeric-value: 7.60
- molecule: "CC(c1cccc(C(=O)N2Cc3cncnc3C2)c1)N1C(=N)NC(c2ccccc2)(c2ccccc2)C1=O (centres unmarked)"
  numeric-value: 7.58
- molecule: "N=C1N[C@](CCCC(F)(F)F)(c2ccc(F)cc2)C(=O)N1Cc1ccc(C(F)(F)F)c(C(=O)N2Cc3cnc(-c4ccncc4)nc3C2)c1"
  numeric-value: 8.25
- molecule: "CC(C)C[C@]1(c2ccccc2)NC(=N)N([C@H](C)c2ccc(C(F)(F)F)c(C(=O)N3Cc4nccnc4C3)c2)C1=O"
  numeric-value: 8.32
- molecule: "N=C1N[C@](CCCC(F)(F)F)(c2ccc(F)cc2)C(=O)N1Cc1ccc(C(F)(F)F)c(C(=O)N2Cc3cnc(N4CCOCC4)nc3C2)c1"
  numeric-value: 7.86
- molecule: "CC(C)CC[C@]1(c2ccccc2)NC(=N)N([C@@H]2CCCc3ccc(C(=O)N4Cc5nccnc5C4)cc32)C1=O"
  numeric-value: 7.24
- molecule: "CC(C)CC1(c2ccccc2)NC(=N)N(Cc2cccc(C(=O)N3CCN(C(=O)c4ccco4)CC3)c2)C1=O (centres unmarked)"
  numeric-value: 7.57
- molecule: "N=C1N[C@](CCCC(F)(F)F)(c2ccc(F)cc2)C(=O)N1Cc1ccc(C(F)(F)F)c(C(=O)N2Cc3cnc(NCC4CC4)nc3C2)c1"
  numeric-value: 8.02
- molecule: "CC(C)CC1(c2ccccc2)NC(=N)N(Cc2ccc(C(F)(F)F)c(C(=O)N3Cc4cnc(C#N)nc4C3)c2)C1=O (centres unmarked)"
  numeric-value: 8.53
- molecule: "N=C1NC(c2ccc(F)cc2)(c2ccc(F)cc2)C(=O)N1Cc1cccc(C(=O)N2CCC(n3c(=O)[nH]c4ncccc43)CC2)c1"
  numeric-value: 7.17
- molecule: "C[C@@H](c1cccc(C(=O)N2Cc3ccccc3C2)c1)N1C(=N)NC(c2ccc(F)cc2)(c2ccc(F)cc2)C1=O"
  numeric-value: 7.23
- molecule: "N=C1N[C@](CCCC(F)(F)F)(c2ccc(F)cc2)C(=O)N1Cc1ccc(C(F)(F)F)c(C(=O)N2Cc3cnc(-c4cnn(-c5ccccc5)c4)nc3C2)c1"
  numeric-value: 8.04
- molecule: "Cc1cccc(-c2ncc3c(n2)CN(C(=O)c2cc(CN4C(=N)N[C@](CCCC(F)(F)F)(c5ccc(F)cc5)C4=O)ccc2C(F)(F)F)C3)c1"
  numeric-value: 7.62
- molecule: "COC(=O)N1CCN(C(=O)c2cccc(CN3C(=N)NC(CCC(C)C)(c4cccc(F)c4)C3=O)c2)CC1 (centres unmarked)"
  numeric-value: 7.08

---

IC50 values, listed per item
# system-under-test: wild-type HIV-1 protease (Human immunodeficiency virus type 1 group M subtype B, UniProt P04585)

- molecule: "N=C1N[C@](CCCC(F)(F)F)(c2ccc(F)cc2)C(=O)N1Cc1ccc(C(F)(F)F)c(C(=O)N2Cc3cnc(-c4cnn5c4CCCC5)nc3C2)c1 [Compound 28]"
  unit: "nM"
  IC50: 3.04
- molecule: "CC(C)OCC(c1ccc(C(F)(F)F)c(C(=O)N2Cc3nccnc3C2)c1)N1C(=N)N[C@](CCC2CC2)(c2ccc(F)cc2)C1=O (stereo partly shown) [Compound 38]"
  unit: "nM"
  IC50: 4.03
- molecule: "CC(C)CC[C@]1(c2ccccc2)NC(=N)N(Cc2ccc(S(C)(=O)=O)c(C(=O)N3Cc4nccnc4C3)c2)C1=O [Compound 126]"
  unit: "nM"
  IC50: 60.2
- molecule: "N=C1NC(CCC2CC2)(c2ccc(C(F)(F)F)cc2)C(=O)N1Cc1ccc(C(F)(F)F)c(C(=O)N2CCn3c(nnc3C(F)(F)F)C2)c1 (stereo not shown) [Compound 125]"
  unit: "nM"
  IC50: 57.2
- molecule: "CS(=O)(=O)c1cccc(-c2ncc3c(n2)CN(C(=O)c2cc(CN4C(=N)N[C@](CCCC(F)(F)F)(c5ccc(F)cc5)C4=O)ccc2C(F)(F)F)C3)c1 [Compound 24]"
  unit: "nM"
  IC50: 2.41
- molecule: "CC(C)CC1(c2ccccc2)NC(=N)N(Cc2cccc(C(=O)N3CCc4ccccc4C3)c2)C1=O (stereo not shown) [Compound 318]"
  unit: "nM"
  IC50: 56.2
- molecule: "N=C1NC(c2ccc(F)cc2)(c2ccc(F)cc2)C(=O)N1Cc1cccc(C(=O)N2Cc3ccc(C(F)(F)F)cc3C2)c1 [Compound 317]"
  unit: "nM"
  IC50: 54.9
- molecule: "COC(=O)N1CCN(C(=O)c2cc(F)cc(CN3C(=N)NC(c4ccccc4)(c4ccccc4)C3=O)c2)CC1 [Compound 298]"
  unit: "nM"
  IC50: 43.5
- molecule: "CC(C)CC1(c2ccccc2)NC(=N)N(Cc2cc(C(=O)N3Cc4nccnc4C3)ccn2)C1=O (stereo not shown) [Compound 403]"
  unit: "nM"
  IC50: 54.3
- molecule: "N#Cc1cccc(-c2ncc3c(n2)CN(C(=O)c2cc(CN4C(=N)N[C@](CCCC(F)(F)F)(c5ccc(F)cc5)C4=O)ccc2C(F)(F)F)C3)c1 [Compound 79]"
  unit: "nM"
  IC50: 10.8
- molecule: "CC(C)CCC1(c2ccccc2)NC(=N)N(Cc2ccc(C(F)(F)F)c(C(=O)N3Cc4cnc(C#N)nc4C3)c2)C1=O (stereo not shown) [Compound 148]"
  unit: "nM"
  IC50: 5.21
- molecule: "N=C1NC(c2ccccc2)(c2ccccc2)C(=O)N1Cc1ccc(Cl)c(C(=O)N2CCC(n3c(=O)[nH]c4ccccc43)CC2)c1 [Compound 383]"
  unit: "nM"
  IC50: 14.7
- molecule: "N=C1NC(c2ccc(F)cc2)(c2ccc(F)cc2)C(=O)N1Cc1ccc(C(F)(F)F)c(C(=O)N2Cc3nccnc3C2)c1 [Compound 139]"
  unit: "nM"
  IC50: 2.93
